System: ACHN renal
Experiment: NCI-60 one-dose screen, 48 h (100 = growth as untreated, 0 = no growth, -100 = all killed)
Details: 10 µM unless noted
Compounds without any hit were thinned out: in the full panel of roughly 83,000, 20% have a hit.
measurement label: growth (%)
Lab book: enter the figure in %, no units written.

Consider the compound shown here: `CCN1CCN(c2cc(C(=O)Nc3nc(-c4cc(OC)c(OC)c(OC)c4)cs3)cc(C(F)(F)F)c2)CC1` What is its recorded growth?
73.2

Could you share which growth value was measured for `O=c1c2cc(-c3ccccc3)sc2nc2sc(-c3ccccc3)nn12` ?
117

Query: growth; subject: `Cc1nc2sc(C(=O)Nc3cccc(Cl)c3C)c(N)c2cc1C(=O)c1ccccc1`
33.7

Which growth reading was recorded for the compound `CC1(C)CC[C@]2(c3nnc(-c4ccncc4)o3)CC[C@H]3C(=CC[C@H]4[C@@]3(C)CC[C@H]3C(C)(C)C(=O)CC[C@]43C)[C@@H]2C1` ?
71.3

I'd like to know its growth. The compound in question is `C#Cc1cccc(Nc2ncnc3ccc(-c4cncc(NS(C)(=O)=O)c4)cc23)c1`
33.2

Which growth is listed for `c1cnc2[nH]cc(-c3csc(-c4cn(CCCN5CCOCC5)c5ccccc45)n3)c2c1` ?
32.8

I am curious: what growth value has been reported for `CCN(CC)CCOc1ccc(-c2c(-c3ccccc3)c(=O)oc3ccccc23)cc1` ?
100

// growth lookup, key: `COP(=O)(OC)C(C)(C)CC(=O)CC(C#N)(C#N)C(C#N)C#N`
100

For the compound shown here, `CCCCCCCCn1ccc2cc(NC(=O)Cn3cc(CN4CCCCC4)nn3)ccc21` , give the reported growth.
57.5

I am curious: what growth value has been reported for `O=C(/C=C(/C=C/c1cccc2[nH]ccc12)OB(F)F)/C=C/c1cccc2[nH]ccc12` ?
-70.3

Quick check: growth of `Cc1ccc(Cl)cc1Nc1nc(C(F)(F)F)ccc1C(=O)N/N=C/c1cccnc1` ?
10.2

Name the reported growth value associated with the compound `CCOC(=O)C#Cc1c(C(=O)OCC)nnn1[C@@H]1O[C@H](CO)[C@H]2OC3(CCCCC3)O[C@H]21`
-53

Sample `Cc1ccc2c3c(c(=O)[nH]c2c1)C1(C(C#N)=C(N)O3)c2cc(Br)ccc2-c2ccc(Br)cc21` — what was its growth?
-15.8

* * *

Test system: BT-549 breast
Assay: NCI-60 one-dose screen, 48 h
Conditions: 10 µM unless noted
Procedure: Growth inhibition of the BT-549 human tumor cell line is measured as a screen for anti-cancer activity. Cells are grown in 96 well plates and exposed to the test compound for 48 hours. Compounds are tested at a single concentration, which is 10^-5 M for most compounds. The reported endpoint is percent growth (GI% or GIPRCNT), where numbers from 0 - 100% represent growth inhibition, and numbers from -100% - 0 represent cell death. For example, a value of 40 represents 60% growth inhibition. […]
This is part of a sample that, as a whole, favours compounds with a hit. Of some 83,000 tested, about 20% had one in any assay. Activity calls are given as the source filed them. How the source made its calls: active means growth percent below 10; inactive means the rest.
Classes to choose from: Y (active), N (inactive)

Outcome logged for CN(C)CCCC1(c2ccc(F)cc2)OCc2cc(-c3cccc4[nH]ccc34)ccc21 (centres undefined) in this assay:
N

Name the outcome recorded for `CC(C)(C)c1cc(-c2nc3ccc(N4CCN(S(C)(=O)=O)CC4)cc3[nH]2)cc(C(C)(C)C)c1O` in the assay.
N

Hey, what did the test say about `COc1cc(-c2cc(-c3ccc(N(C)C)cc3)nc(N3CCC(O)CC3)c2C#N)cc(OC)c1OC` ?
N

Outcome logged for `OCCNCCCOc1ccc2ncnc(Nc3ccc(Oc4cccc(C(F)(F)F)c4)c(Cl)c3)c2c1` in this assay:
N

Answer briefly: the call reported for `O=C(N/N=C/c1ccc(F)cc1)c1ccc(C(F)(F)F)nc1Nc1cccc(C(F)(F)F)c1` in this assay.
Y

Write down the call the test reported for this molecule. Item: `Cn1cc(-c2nc(-c3c[nH]c4ccncc34)cs2)c2ccccc21`
N

Call for entry CCN1C(=O)N(CC)C2C1NN=c1s/c(=C\c3cccc([N+](=O)[O-])c3)c(=O)n12 (centres undefined) :
N

Lab log entry: CCCCN1C(=O)/C(=c2\sc3n(c2=O)C2C(NN=3)N(CC)C(=O)N2CC)c2ccccc21 (centres undefined) — outcome as called in the assay?
N

Kindly provide the recorded test outcome for the following molecule: `Cc1nc2ncnc(Cl)c2[nH]1`
N

* * *

Answer each item with its documented growth.
Tested on: NCI-H322M lung
Test: NCI-60 one-dose screen, 48 h (100 = growth as untreated, 0 = no growth, -100 = all killed)
Conditions: 10 µM unless noted
This is part of a sample that, as a whole, favours compounds with a hit. Of some 83,000 tested, about 20% had one in any assay. Active and inactive are the calls of the source. How the source made its calls: active means growth percent below 10; inactive means the rest.

Which growth value belongs to C=C(CNCCc1ccc(O)cc1)[C@@H]1CC[C@]2(CO)CC[C@]3(C)[C@H](CC[C@@H]4[C@@]5(C)CCC(NCCO)C(C)(C)[C@@H]5CC[C@]43C)[C@@H]12 (some centres undefined) ?
-24.5% (active)

Consider the molecule shown here: `COC(=O)c1c2c(c[n+]([O-])c1C)C(=O)C(NCc1ccccc1)=CC2=O` What is its recorded growth?
-8.65% (active)

Consider the molecule `Cc1ccc(-c2csc(NC(=O)CN3CCN(c4cc5c(cc4F)c(=O)c(C(=O)O)cn5C4CC4)CC3)n2)cc1` and give its measured growth.
12.4% (inactive)

For `C[C@H](NC(=O)[C@@H](C)N)[C@H](Oc1ccc2c(cnn2-c2ccc(F)cc2)c1)c1ccc2c(c1)OCCO2` , what is its reported growth?
75.5% (inactive)

* * *

Tested on: LOX IMVI melanoma
Test: NCI-60 one-dose screen, 48 h (100 = growth as untreated, 0 = no growth, -100 = all killed)
Settings: 10 µM unless noted
Procedure: Growth inhibition of the LOX IMVI human tumor cell line is measured as a screen for anti-cancer activity. Cells are grown in 96 well plates and exposed to the test compound for 48 hours. Compounds are tested at a single concentration, which is 10^-5 M for most compounds. The reported endpoint is percent growth (GI% or GIPRCNT), where numbers from 0 - 100% represent growth inhibition, and numbers from -100% - 0 represent cell death. For example, a value of 40 represents 60% growth inhibition. […]
The panel holds about 83,000 compounds, 20% with a hit somewhere; the sample as a whole holds those more often.
measurement label: growth (%)
Write the answer as a number in %, unit excluded.

I would be grateful if you could share the reported growth for `CNC(=O)c1cc(Oc2ccc3nc(NC(C)=O)sc3c2)ccn1` .
93.2

Look up growth: Nc1ncnc2c1N=C(c1ccc3c(c1)OCO3)CC(c1cccc(Nc3ccnc4cc(Cl)ccc34)c1)N2 (stereo not given)
27.2

Report growth for `Cc1nc2sc(C(=O)Nc3cccc(Cl)c3C)c(N)c2cc1C(=O)c1ccccc1` please.
35.8

So what's the measured growth for this one? `CCOC(=O)c1c2c(n3ccc(C)cc13)C(=O)c1ccccc1C2=O`
94

Which growth is listed for `CCOC(=O)c1cc(C(=O)c2cc(OC)c(OC)c(OC)c2)n2ccc(-c3ccncc3)cc12` ?
99

* * *

Assign growth to each entry below.
Tested on: M14 melanoma
Experiment: NCI-60 one-dose screen, 48 h (100 = growth as untreated, 0 = no growth, -100 = all killed)
Settings: 10 µM unless noted
This is part of a sample that, as a whole, favours compounds with a hit. Of some 83,000 tested, about 20% had one in any assay.
Give your result in % as a bare value.

Which growth is reported for this compound? `O=C(Cn1c(=O)sc2ccccc21)NNS(=O)(=O)c1ccccc1[N+](=O)[O-]`
99.4

# input compound: `COc1cc(-c2nc3cc(Cl)c(Cl)cc3[nH]2)ccc1OCC(=O)N=Nc1c(O)[nH]c2ccc([N+](=O)[O-])cc12` ; wanted: its growth
80.8

# lookup: growth of CC12CCC3c4ccccc4CCC3(CO1)C2 (stereo not drawn)
128

* * *

Test system: SK-MEL-5 melanoma
Test: NCI-60 one-dose screen, 48 h
Settings: 10 µM unless noted
Experimental: Growth inhibition of the SK-MEL-5 human tumor cell line is measured as a screen for anti-cancer activity. Cells are grown in 96 well plates and exposed to the test compound for 48 hours. Compounds are tested at a single concentration, which is 10^-5 M for most compounds. The reported endpoint is percent growth (GI% or GIPRCNT), where numbers from 0 - 100% represent growth inhibition, and numbers from -100% - 0 represent cell death. For example, a value of 40 represents 60% growth inhibition. […]
The panel holds about 83,000 compounds, 20% with a hit somewhere; the sample as a whole holds those more often. The source made the active and inactive calls. How the source made its calls: active means growth percent below 10; inactive means the rest.
Entry note: the call must match one of active, inactive

Could you please tell me the result logged for `Cc1oc(-c2ccc(Cl)cc2)nc1/C=C/C(=O)c1ccccc1` in this assay?
inactive

Lab log entry: `COC(=O)c1c2c(c(C)[n+]([O-])c1C)C(=O)C=C(NCc1ccc(OC)cc1)C2=O` — outcome as called in the assay?
active

Please let me know the test result on file for `O=C(Nc1nn(-c2ccc(Cl)cc2Cl)nc1-c1ccccc1)c1ccccc1` .
inactive

Returns: the outcome recorded for `CCCCOC(=O)OCc1cc(=O)c(O)co1` in this assay.
inactive

Hi team, can someone confirm the assay call for `C#CCOc1ccc2ncnc(Nc3ccc(NC(=O)CCl)cc3)c2c1` ?
active

Just curious, what result did `Cc1cccc(Cl)c1NC(=O)c1ccc2nc(NC(=O)NCCN(C)C)sc2c1` get here?
inactive

Which outcome did this test record for the compound CC1(c2ccccc2O)NN=C(/N=C/c2cccc([N+](=O)[O-])c2)N1C(Cc1c[nH]c2ccccc12)C(=O)O (centres undefined) ?
inactive

Hi, sorry to bother you, what did the test record for `COc1ccc2nc3ccc(OC)cc3c(SCCCN)c2c1` ?
inactive

Test call, this compound: Nc1nc(=S)c2ncn(C3OC(COP(=O)(O)O)C(O)C3O)c2[nH]1 (centres undefined)
inactive

Look up the recorded call for `N#Cc1c(-c2ccccc2)cc(-c2ccccc2)n(CCCCCC(=O)Nc2ccccc2N)c1=O` in this test.
inactive

Fill in: this test's call for `O=C1N[C@@H]2NC(=[N+]3CCOCC3)N[C@@H]2N1` is ___
inactive

Tell me the assay call for `O=C(Nn1c2c(sc1=Nc1ccccc1)C(=O)c1ccccc1C2=O)c1cc2ccc1CCc1ccc(cc1)CC2` please.
inactive

Hello, I am checking results. What call was entered for `CCc1ccc(Oc2cn[nH]c2-c2ccc(OCCc3ccc(F)cc3)cc2O)cc1` ?
inactive

Please state the recorded outcome for this compound: `Cc1ccc(Sc2nnc(/N=C3\C(=O)Nc4ccccc43)s2)cc1`
inactive

Can you look up the reported call for `Brc1ccc(-n2cc(-c3nn[nH]n3)c(-c3cccs3)n2)cc1` for me?
inactive

Each compound tested received a call. Report the one for `Oc1ccc(CN2CCC(N3CCCCC3)CC2)c2cccnc12` .
active

Recorded test call requested for `CN(C)CCNc1nc2c3cc(Cl)ccc3nn2c2ccccc12`
inactive

What outcome does the record of this test show for `COc1cccc(/C=C/C(=O)c2cc3c(N)c(C(=O)Nc4ccccc4)sc3nc2C)c1` ?
inactive

GET /call?item= `c1cnc2[nH]cc(-c3csc(-c4cn(CCCN5CCOCC5)c5ccccc45)n3)c2c1` returns the recorded outcome of this test.
inactive

Sourced from PubChem BioAssay (NCI)
